Listing of entries alongside the reported IC50.
Molecular target: Lyn (Homo sapiens, UniProt P07948)
Sequence (P07948 whole entry, species assumed): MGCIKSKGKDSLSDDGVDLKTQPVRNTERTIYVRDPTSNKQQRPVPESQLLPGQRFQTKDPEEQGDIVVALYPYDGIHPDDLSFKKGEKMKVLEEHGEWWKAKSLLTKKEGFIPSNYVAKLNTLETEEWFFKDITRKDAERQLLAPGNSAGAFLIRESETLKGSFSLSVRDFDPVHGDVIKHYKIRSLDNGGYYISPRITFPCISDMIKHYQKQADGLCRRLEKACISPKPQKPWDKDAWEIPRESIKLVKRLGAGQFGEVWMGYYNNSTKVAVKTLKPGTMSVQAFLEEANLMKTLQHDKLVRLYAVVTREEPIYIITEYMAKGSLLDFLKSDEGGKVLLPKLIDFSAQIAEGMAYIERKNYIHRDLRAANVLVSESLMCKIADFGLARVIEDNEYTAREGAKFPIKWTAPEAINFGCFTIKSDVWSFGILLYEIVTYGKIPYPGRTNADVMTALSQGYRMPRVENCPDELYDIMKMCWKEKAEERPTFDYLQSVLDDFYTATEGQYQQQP

A selection of reference data follows.
COc1cc(Nc2ncnc(Nc3cc(-c4ccco4)n[nH]3)n2)cc(OC)c1OC = < 0.977 µM
COc1ccc(CNc2nc3ccccc3n2-c2ncnc(Nc3cc(OC)c(OC)c(OC)c3)n2)cc1 = > 8.76 µM
COc1cc(Nc2ncnc(Nc3cc(OC)c(OC)c(OC)c3)n2)cc(OC)n1 = > 10.9 µM

Here's the next entry for you.
Entry Cc1cccc(Nc2ncnc(Nc3ccc(O)cc3)n2)c1 ; IC50 = < 1.36 µM

====

Target: EGFR (Homo sapiens, UniProt P00533)
Construct: Kinases are expressed as either kinase domains or full length constructs; made in house
Sequence (P00533 25-1210, species assumed): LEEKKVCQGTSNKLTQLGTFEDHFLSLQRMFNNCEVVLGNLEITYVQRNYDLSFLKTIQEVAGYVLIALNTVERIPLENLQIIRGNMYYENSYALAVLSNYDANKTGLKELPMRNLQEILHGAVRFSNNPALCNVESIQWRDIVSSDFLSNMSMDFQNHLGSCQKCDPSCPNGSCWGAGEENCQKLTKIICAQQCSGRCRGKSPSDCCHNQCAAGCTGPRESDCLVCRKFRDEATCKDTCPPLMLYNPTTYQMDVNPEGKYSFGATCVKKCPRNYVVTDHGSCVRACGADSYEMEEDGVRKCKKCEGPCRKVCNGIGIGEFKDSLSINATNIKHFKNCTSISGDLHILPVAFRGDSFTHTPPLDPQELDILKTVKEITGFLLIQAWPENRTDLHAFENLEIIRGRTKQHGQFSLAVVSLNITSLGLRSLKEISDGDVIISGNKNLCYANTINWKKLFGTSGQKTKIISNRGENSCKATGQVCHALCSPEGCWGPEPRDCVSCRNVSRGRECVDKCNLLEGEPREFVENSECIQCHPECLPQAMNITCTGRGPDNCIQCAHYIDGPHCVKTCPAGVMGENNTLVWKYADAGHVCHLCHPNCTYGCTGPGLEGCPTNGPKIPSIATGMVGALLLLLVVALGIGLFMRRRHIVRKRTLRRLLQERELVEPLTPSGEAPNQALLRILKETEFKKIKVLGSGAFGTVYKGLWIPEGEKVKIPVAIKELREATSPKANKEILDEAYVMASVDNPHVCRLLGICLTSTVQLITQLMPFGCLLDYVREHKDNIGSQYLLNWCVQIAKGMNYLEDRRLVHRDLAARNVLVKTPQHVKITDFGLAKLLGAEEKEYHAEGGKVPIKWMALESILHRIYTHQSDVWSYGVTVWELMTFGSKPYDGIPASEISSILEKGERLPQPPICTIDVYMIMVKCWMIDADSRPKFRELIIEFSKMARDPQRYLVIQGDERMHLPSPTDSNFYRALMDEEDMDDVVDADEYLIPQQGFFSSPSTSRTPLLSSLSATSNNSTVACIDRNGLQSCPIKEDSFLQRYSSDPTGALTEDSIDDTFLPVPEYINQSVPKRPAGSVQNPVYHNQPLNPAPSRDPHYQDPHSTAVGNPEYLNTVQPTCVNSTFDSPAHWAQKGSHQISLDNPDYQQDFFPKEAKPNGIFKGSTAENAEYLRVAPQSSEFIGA
Experiment: Kinase inhibition assay (33P transfer), EGFR
Type: biochemical
Settings: Table 2, kinase inhibition class; read-out: EGFR-1
observation.type: IC50

A selection of reference data follows.
COc1cc(Nc2ncnc(-n3c(=O)[nH]c4ccccc43)n2)cc(OCCN2CCOCC2)c1OC = > 9.12 µM
COc1cc(Nc2ncnc(-c3cccc4ccccc34)n2)cc(OC)c1OC = > 11.6 µM
COc1cc(Nc2ncnc(-n3c(Nc4ccc5[nH]ccc5c4)nc4ccccc43)n2)cc(OC)c1OC = 6.88 to 8.85 µM

Entry CCN(CC)C(=O)C1CCCN(c2ncnc(Nc3cc(OC)c(OC)c(OC)c3)n2)C1 (stereo not shown) ; IC50 = > 10.1 µM

Entry COc1cc(Nc2ncnc(-c3cccnc3Cl)n2)cc(OC)c1OCCN1CCOCC1 ; IC50 = > 9.52 µM

Entry c1csc(-c2ncnc(Nc3ccc4c(c3)OCO4)n2)c1 ; IC50 = > 15.1 µM

Entry CC(C)(C)c1cc(Nc2ncnc(Nc3cccc(CO)c3)n2)[nH]n1 ; IC50 = 1.18 to 7.07 µM

====

Molecular target: Flt-1 (Homo sapiens)
Sequence (P17948 27-1338, species assumed): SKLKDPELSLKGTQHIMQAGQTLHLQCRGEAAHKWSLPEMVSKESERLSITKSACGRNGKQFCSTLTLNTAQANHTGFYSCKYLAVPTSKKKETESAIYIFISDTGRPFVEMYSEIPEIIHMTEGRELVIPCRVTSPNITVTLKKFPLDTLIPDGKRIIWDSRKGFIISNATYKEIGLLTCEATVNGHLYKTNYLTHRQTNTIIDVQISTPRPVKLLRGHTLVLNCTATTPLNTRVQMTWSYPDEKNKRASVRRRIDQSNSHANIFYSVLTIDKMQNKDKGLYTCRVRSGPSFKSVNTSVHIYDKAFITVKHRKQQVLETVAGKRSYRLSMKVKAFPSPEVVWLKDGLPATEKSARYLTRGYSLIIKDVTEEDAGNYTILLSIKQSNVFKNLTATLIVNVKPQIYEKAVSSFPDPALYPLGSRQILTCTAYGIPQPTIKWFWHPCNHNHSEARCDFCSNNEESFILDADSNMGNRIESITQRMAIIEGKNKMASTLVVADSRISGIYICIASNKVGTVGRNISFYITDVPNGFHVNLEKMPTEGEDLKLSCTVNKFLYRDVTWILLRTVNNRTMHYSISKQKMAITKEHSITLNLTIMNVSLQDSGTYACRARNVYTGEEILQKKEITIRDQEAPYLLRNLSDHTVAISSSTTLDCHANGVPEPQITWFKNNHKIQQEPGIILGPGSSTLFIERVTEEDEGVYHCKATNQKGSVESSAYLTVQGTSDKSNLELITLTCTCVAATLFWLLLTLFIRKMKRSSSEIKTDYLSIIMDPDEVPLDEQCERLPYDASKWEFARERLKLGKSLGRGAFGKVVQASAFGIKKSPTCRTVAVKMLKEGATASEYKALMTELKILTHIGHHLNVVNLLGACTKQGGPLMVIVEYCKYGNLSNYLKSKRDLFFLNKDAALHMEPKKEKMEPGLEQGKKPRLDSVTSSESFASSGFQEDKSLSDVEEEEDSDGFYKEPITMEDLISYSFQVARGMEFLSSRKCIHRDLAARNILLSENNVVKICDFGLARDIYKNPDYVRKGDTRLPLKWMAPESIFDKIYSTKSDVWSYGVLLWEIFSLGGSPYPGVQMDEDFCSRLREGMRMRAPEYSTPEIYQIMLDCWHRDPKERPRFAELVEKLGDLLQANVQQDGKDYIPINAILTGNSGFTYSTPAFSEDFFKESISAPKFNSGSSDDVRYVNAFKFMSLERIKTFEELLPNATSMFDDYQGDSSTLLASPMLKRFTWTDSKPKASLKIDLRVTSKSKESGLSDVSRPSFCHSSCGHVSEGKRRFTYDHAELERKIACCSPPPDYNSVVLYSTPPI
Listing of entries alongside the reported IC50.

A selection of reference data follows.
COc1cc(Nc2ncnc(Nc3cc(-c4ccco4)n[nH]3)n2)cc(OC)c1 = 1.05 to 6.33 µM
COc1cc(Nc2ncnc(-n3c(N)nc4ccccc43)n2)cc(OCCN2CCOCC2)c1OC = < 0.812 µM
COc1ccc(Nc2ncccc2-c2ncnc(Nc3cc(OC)c(OC)c(OC)c3)n2)c(C)c1 = 5.06 to 7.38 µM

Param item: COc1ccc(Nc2ccc(Nc3ncnc(Nc4cc(OC)c(OC)c(OC)c4)n3)cc2)cc1 ; param system: Flt-1 (Homo sapiens); output IC50: 5.06 to 7.38 µM

====

Target: Zap-70 (Homo sapiens)
Construct: Kinases are expressed as either kinase domains or full length constructs; made in house
Assay: Kinase inhibition assay (33P transfer), Zap-70
Assay type: biochemical
Conditions: read-out: Zap-1
pIC50: −log10 of the molar value.
observation.type: pIC50

A selection of reference data follows.
Clc1ncnc(Nc2cc(-c3ccccc3)n[nH]2)n1 [Compound 976] = 4.89 to 5.06
COc1cc(Nc2ncnc(-n3c(NCc4ccc(C(F)(F)F)cc4)nc4ccccc43)n2)cc(OC)c1OC [Compound 598] = < 5.09

Entry COc1cc(Nc2ncnc(-n3c(NCCc4ccccn4)nc4ccccc43)n2)cc(OC)c1OC [Compound 510] ; pIC50 = < 5.04

====

Molecular target: Zap-70 (Homo sapiens, UniProt P43403)
Construct: Kinases are expressed as either kinase domains or full length constructs; made in house
Sequence (P43403 1-619): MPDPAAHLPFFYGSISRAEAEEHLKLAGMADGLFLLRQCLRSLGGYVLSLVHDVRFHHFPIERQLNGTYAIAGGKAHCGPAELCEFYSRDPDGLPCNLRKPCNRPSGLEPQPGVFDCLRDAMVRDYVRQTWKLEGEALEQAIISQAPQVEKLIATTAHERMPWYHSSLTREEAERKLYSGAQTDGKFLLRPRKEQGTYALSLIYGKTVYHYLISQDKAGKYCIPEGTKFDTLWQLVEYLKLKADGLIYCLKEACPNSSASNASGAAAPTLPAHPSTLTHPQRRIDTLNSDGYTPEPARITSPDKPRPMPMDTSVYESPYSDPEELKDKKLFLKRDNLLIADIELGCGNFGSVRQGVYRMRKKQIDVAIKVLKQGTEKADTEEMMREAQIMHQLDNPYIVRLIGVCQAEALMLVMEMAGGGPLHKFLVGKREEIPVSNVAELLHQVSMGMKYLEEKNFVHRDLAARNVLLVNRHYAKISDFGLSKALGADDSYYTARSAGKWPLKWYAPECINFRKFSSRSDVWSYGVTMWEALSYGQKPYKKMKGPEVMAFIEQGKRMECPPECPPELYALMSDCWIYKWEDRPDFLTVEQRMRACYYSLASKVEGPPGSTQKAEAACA
Experiment: Kinase inhibition assay (33P transfer), Zap-70
Format: biochemical
Conditions: read-out: Zap-1
pIC50: −log10 of the molar value.
observation.type: pIC50

A selection of reference data follows.
CCOC(=O)CNc1ncnc(N2CCCc3cc(C)ccc32)n1 = < 4.86
COc1cc(Nc2ncnc(Nc3cccc4ncccc34)n2)cc(OC)c1OC = < 4.95

Entry COc1ccc(Nc2ncnc(-n3c(N)nc4ccccc43)n2)cc1 ; pIC50 = < 4.87

Entry COc1cc(Nc2ncnc(N3CCCc4ccc(C(F)(F)F)cc43)n2)cc(OC)c1OC ; pIC50 = < 5.01
